- ASSAY CONTEXT: in isopropanol, 303.15 K
PARAMETER: solubility (mole fraction)
Format: numeric value only, no unit, no commentary.

# input # get_value(readout='solubility (mole fraction)', item= Oc1ccc(C2(c3ccc(O)cc3)CCCCC2)cc1 )
# output 0.0076

----------
- ASSAY CONTEXT: in 1,4-dioxane, 298.15 K
PARAMETER: solubility (mole fraction)

# input Can you share its solubility (mole fraction)? I mean this compound: Oc1ccc(C2(c3ccc(O)cc3)CCCCC2)cc1
# output 0.0676

----------
- ASSAY CONTEXT: in THF, 293.15 K
PARAMETER: solubility (mole fraction)
Keep the answer to the number alone.

# input Can you look up the measured solubility (mole fraction) of Oc1ccc(C2(c3ccc(O)cc3)CCCCC2)cc1 for me?
# output 0.192
